B1: scFv; the commonest letter at each place (parent)
chain 1: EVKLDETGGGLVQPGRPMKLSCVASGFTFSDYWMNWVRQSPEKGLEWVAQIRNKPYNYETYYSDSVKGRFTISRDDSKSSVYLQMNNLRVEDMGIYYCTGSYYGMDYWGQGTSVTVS
chain 2: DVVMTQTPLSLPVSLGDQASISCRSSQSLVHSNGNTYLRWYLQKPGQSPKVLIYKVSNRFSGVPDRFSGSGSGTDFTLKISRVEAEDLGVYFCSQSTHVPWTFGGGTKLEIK

- Variants of: B1
- METHOD: Kd (Tite-Seq)
- CONDITIONS: with fluorescein; format: scFv 4-4-20, heavy + light
Below, each entry is listed with its recorded Kd.
QUANTITY_MEASURED: Kd

> print(dat)
       variant.designation     observed
 1            chain 1 W36V      ≥ 10 µM
 2       chain 1 T28Y W36M      ≥ 10 µM
 3     chain 1 S101E W108H      ≥ 10 µM
 4     chain 1 Y103G W108F   0.00194 µM
 5            chain 1 Y32F   0.00352 µM
 6     chain 1 Y102R Y103P      ≥ 10 µM
 7       chain 1 W36H V37F      ≥ 10 µM
 8     chain 1 S101H Y103L      ≥ 10 µM
 9     chain 1 G100A S101F      ≥ 10 µM
10     chain 1 S101K Y103S      ≥ 10 µM
11  chain 1 F29N D31C M34N      ≥ 10 µM
12       chain 1 D31R Y32I      ≥ 10 µM
13     chain 1 Y103D D106R      ≥ 10 µM
14       chain 1 T28S M34N      ≥ 10 µM
15     chain 1 G100Q D106P      ≥ 10 µM
16       chain 1 D31Y W33R      ≥ 10 µM
17     chain 1 Y102V W108G      ≥ 10 µM
18       chain 1 S30K V37A    0.0272 µM
19     chain 1 G100K D106V      ≥ 10 µM
20            chain 1 S30Y   0.00146 µM
21  chain 1 Y32Q M34G V37K      ≥ 10 µM
22     chain 1 Y107L W108L  0.000939 µM
